# Tested on: BT-549 breast
# TEST: NCI-60 one-dose screen, 48 h (100 = growth as untreated, 0 = no growth, -100 = all killed)
# COND: 10 µM unless noted
Compounds without any hit were thinned out: in the full panel of roughly 83,000, 20% have a hit.
Rule: measured growth below 90% gets y; anything equal to or greater than 90% gets n.

// below: answered compounds
O=C(NCN1C(=O)c2cccc3cccc(c23)C1=O)N1CCC(Cc2ccccc2)CC1 ... n
COc1ccc(/C=C/C(=O)NCC(C)O)cc1 (stereo unspecified) ... n
C=C(C)[C@@H]1CC[C@]2(C(=O)O)CC[C@]3(C)[C@H](CC[C@@H]4[C@@]5(C)C/C(=C/c6ccc(OC)cc6)C(=O)C(C)(C)[C@@H]5CC[C@]43C)[C@@H]12 ... y
O=C(/C=C/c1cccc(O)c1)c1ccccc1O ... y
C[C@@H](Oc1ccc(C(=O)NS(=O)(=O)C(C)(C)C)cc1C(F)(F)F)c1ccc(Oc2ccccc2)cn1 ... y

Determine if Cc1cc(N(CCCNc2ccnc3cc(Cl)ccc23)Cc2ccco2)nc(N2CCOCC2)n1 shows growth strictly lower than 90%.
y

Please let me know if CCCCN1CCCCn2c1nc1c2c(=O)n(C)c(=O)n1C shows growth below 90%.
n

growth strictly < 90% for this compound? Cc1ccc2c(c1)c(-c1nc(-c3c[nH]c4ncccc34)cs1)cn2C
n

Hello, I'm reviewing records and need to know if growth of NC(=O)NCC1CCCCC1 is below 90%. Could you check?
n

###

# Tested on: NCI-H460 lung
# TEST: NCI-60 one-dose screen, 48 h
# COND: 10 µM unless noted
The panel holds about 83,000 compounds, 20% with a hit somewhere; the sample as a whole holds those more often. Activity calls are given as the source filed them. How the source made its calls: active means growth percent below 10; inactive means the rest.
Pick from active, inactive when you respond.

The following compounds have reported results that may help.
Cn1c2c(c3ccc(Cl)cc31)-n1cccc1C2=O ... inactive
NNC(=O)c1nc2ccccc2[nH]1 ... inactive
CC(C)=CCC[C@](C)(O)[C@H]1CC[C@]2(C)[C@@H]1CC[C@@H]1[C@@]3(C)C/C(=C/c4cccc([N+](=O)[O-])c4)C(=O)C(C)(C)[C@@H]3CC[C@]12C ... inactive
COc1cc(/C=N/NC(=S)NNC(=S)NC2CCCCC2)cc(OC)c1OC ... inactive
Cn1cc(-c2nc(-c3c[nH]c4ncccc34)cs2)c2cc(F)ccc21 ... inactive

Query: recorded result category for O=c1c(CNc2ccc(S(=O)(=O)Nc3ncccn3)cc2)coc2ccccc12 in this test
inactive

For Oc1ccc(CCC2CCCC(CCc3ccc(OCCF)cc3)N2)cc1 (stereo not given) , which call appears in the assay record?
inactive

Hi team, can someone confirm the assay call for Cc1oc(-c2ccccc2Cl)cc1C(=O)Nc1ccc(S(N)(=O)=O)cc1 ?
inactive

###

# Tested on: UO-31 renal
# TEST: NCI-60 one-dose screen, 48 h (100 = growth as untreated, 0 = no growth, -100 = all killed)
# COND: 10 µM unless noted
The panel holds about 83,000 compounds, 20% with a hit somewhere; the sample as a whole holds those more often.
OBSERVABLE: growth (%)
Quick reminder: number only, in %, skip the unit.

Consider the following illustrative entries.
O=c1c(CNc2ccc(S(=O)(=O)Nc3nccs3)cc2)coc2ccccc12 ... 82.2
COC(=O)[C@]12CC[C@@H](C)[C@H](C)[C@@H]1C1=CC(=O)[C@@H]3[C@@]4(C)C[C@@H](O)[C@H](O)[C@@]5(C)COC(=C45)C[C@@]3(C)[C@]1(C)CC2 ... 65.8

Tell me reported growth for N#C/C(=C\c1ccc(-c2ccc(F)cc2)o1)c1nc(-c2ccco2)cs1 , tested with UO-31 renal.
69.8

Find the measured growth: item Clc1ccc(Cn2cc(-c3nc4ccc(Br)nc4n3Cc3ccc(Cl)cc3)c3cccnc32)cc1 , target or system UO-31 renal.
51.7

Notebook entry, UO-31 renal assay: growth of O=C1Nc2ccccc2/C1=C/c1cn(CCCn2c3ccccc3c(=O)c3ccccc32)c2ccccc12 = ?
44.6

Entry Cn1cc(-c2csc(-c3c[nH]c4ccccc34)n2)c2cccnc21 , system UO-31 renal: what growth was measured?
57.2

Find growth (UO-31 renal) for the entry C=C1C(=O)O[C@H]2[C@H]1CC/C(Cn1cc(-c3ccc(F)cc3)nn1)=C\CC[C@@]1(C)O[C@@H]21
-80.8

Form: Entry = CC1(C)[C@@H](O)CC[C@]2(C)[C@H]3CC[C@@H]4[C@H]5[C@H](C(=O)/C=C/c6ccc(C(F)(F)F)cc6)CC[C@]5(CO)CC[C@@]4(C)[C@]3(C)CC[C@@H]12 | System = UO-31 renal | growth = ____
46.7

API: value(readout= growth, system= UO-31 renal, query= Nc1nc2c3ccncc3cc(-c3cccc(Cl)c3)c2c2cnccc12 )
29.7

Record CC(=O)O[C@@H]1CCN2C(=O)N(C)c3ccccc3[C@@H]2C1 : what is its growth with UO-31 renal?
94.5

###

# Tested on: NCI-H322M lung
# TEST: NCI-60 one-dose screen, 48 h (100 = growth as untreated, 0 = no growth, -100 = all killed)
# COND: 10 µM unless noted
Compounds without any hit were thinned out: in the full panel of roughly 83,000, 20% have a hit.
Met if growth is below 90%. Not met if not; exact matches included in Not met.

Illustrative cases are given below, each with its answer.
Cc1cc(N(CCCNc2ccnc3cc(Cl)ccc23)Cc2ccco2)nc(Cl)n1 ... Met
C=C(C)[C@@H]1CC[C@]2(C=O)CC[C@]3(C)[C@H](CC[C@@H]4[C@@]5(C)C/C(=C/c6cccnc6)C(=O)C(C)(C)[C@@H]5CC[C@]43C)[C@@H]12 ... Not met
Cc1oc(-c2ccccc2Cl)cc1C(=O)Nc1ccc(S(N)(=O)=O)cc1 ... Not met
Nc1c2c(nc3ccc(Cl)cc13)CC(c1ccc(O)cc1)CC2=O (stereo unspecified) ... Met
CC(c1ccccc1)N1C(=O)C(C2SC(=S)N(C(C)c3ccccc3)C2=O)SC1=S (stereo unspecified) ... Not met
c1ccc2[nH]c(-c3cc(-c4ccc5c(c4)OCO5)n[nH]3)nc2c1 ... Met

Is growth of Cc1[c-]onc1C.Cc1[c-]onc1C.[Ag].[Ag].[NH-]S(=O)(=O)c1ccc(N=Nc2cc(N=Nc3ccc(S([NH-])(=O)=O)cc3)c3c(NC(=O)C(Cl)Cl)cccc3c2OC(=O)C(Cl)Cl)cc1 strictly below 90%?
Not met

Criterion: growth strictly below 90%. Is it met by C=C1C(=O)O[C@H]2[C@H]1CC/C(COC(=O)NCCc1c[nH]c3ccccc13)=C\CC[C@@]1(C)O[C@@H]21 ?
Met

Take the molecule O=C1C=Cc2ncccc2C1=O and say whether its growth is less than 90%.
Not met

Record COc1cccc(-c2nn(-c3ccccc3)cc2-c2ccnc(NCCNS(=O)(=O)c3ccc(C(F)(F)F)cc3)c2)c1 : is its growth strictly below 90%?
Met

# check: growth < 90% for Cc1cc(N2CCN(C)CC2)nc(N(CCNc2ccnc3cc(Cl)ccc23)Cc2ccco2)n1
Met

In the record for COc1ccc(OC)c(-c2c(C#N)c(-c3ccco3)nc3c2c(-c2ccccc2)nn3-c2ccccc2)c1 , is growth less than 90%?
Not met

I'd appreciate it if you could check whether Cc1ccc(Nc2c(C(N)=O)cnc3ccc(S(=O)(=O)Nc4cc(C)on4)cc23)cc1 has growth smaller than 90%.
Not met

###

Quick reference: growth of the listed items.
# Tested on: HOP-62 NSCLC
# TEST: NCI-60 one-dose screen, 48 h (100 = growth as untreated, 0 = no growth, -100 = all killed)
# COND: 10 µM unless noted
Compounds without any hit were thinned out: in the full panel of roughly 83,000, 20% have a hit.
Report only the number, with the unit % understood.

Cc1csc(Nc2nc(-c3cccc(Br)c3)nc(C(Cl)(Cl)Cl)n2)n1 ... 34
O=C1CNCCN1 ... 114
NC(N)=N/N=C/c1ccc(-c2ccc(-c3ccc(Cl)cn3)s2)cc1 ... 93.8
Cc1ccc(-c2ccc(/C=C(\C#N)c3nc(-c4ccco4)cs3)o2)cc1 ... 97.5
COc1ccc(NC(=O)c2ccc3c(c2)nc(-c2cc4ccccc4[nH]c2=O)n3-c2cc(C(C)(C)C)[nH]n2)cc1 ... 98.7

With those in mind, consider the next compound.
Give the measured growth of C=C(C)[C@@H]1CC[C@]2(C)[C@H](CC=C3[C@@H]4CC(C)(C)CC[C@]4(C(=O)OC)CC[C@]32C)[C@@]1(C)CC/C(N)=N/O .
79.3

###

# Tested on: SN12C renal
# TEST: NCI-60 one-dose screen, 48 h (100 = growth as untreated, 0 = no growth, -100 = all killed)
# COND: 10 µM unless noted
Compounds without any hit were thinned out: in the full panel of roughly 83,000, 20% have a hit.
Reported growth values for a set of compounds
Entry rule: numbers only, all in %.

Consider the reported growth for these compounds:
Nc1ccc(Cl)cn1 ... 107
O=C(O)c1cccc2c1Cc1cc([N+](=O)[O-])ccc1-2 ... 103

Which growth is reported for this compound? CC(=O)OC[C@]12CC[C@@H](/C(C)=N/O)[C@@H]1[C@H]1CC[C@@H]3[C@@]4(C)CCCNC(C)(C)[C@@H]4CC[C@@]3(C)[C@]1(C)CC2
75.3

# lookup: growth of COc1ccc2c(c1)c(-c1nc(-c3c[nH]c4ncccc34)cs1)cn2C
74.5

# lookup: growth of CN(C)c1ccc(N=C2C=CC(=O)C=C2)cc1
92

Given the entry C=C(C)[C@@H]1CC[C@]2(C)CC[C@]3(C)[C@H](CC[C@@H]4[C@@]5(C)CCCNC(C)(C)[C@@H]5CC[C@]43C)[C@@H]12 , report its measured growth.
82.1

What does the record list as growth for O=C(N/N=C\c1c(O)ccc2ccccc12)C1CC1 ?
66.5

Suppose we examine the compound Oc1ccc(Nc2ccccc2)cc1 ; what growth value has been reported?
90.3

Returns the measured growth for the input compound. Input: COC(=O)[C@]12CC[C@@H](C)[C@H](C)[C@@H]1C1=CC[C@@H]3[C@@]4(C)C[C@@H](O)OC[C@](C)(C=O)C4C(=O)C[C@@]3(C)[C@]1(C)CC2 (stereo partly specified)
11.4

If you can, please state the reported growth value of COc1cc2c(cc1OC)C(=O)/C(=C/c1cc(-c3ccc4c(c3)OCO4)n[nH]1)C2 .
6.08

Any idea what growth was measured for NC1=NN=C2N(N)C(=O)c3cnn(-c4ccccc4)c3N2c2nc(-c3ccccc3)cc(-c3ccccc3)c21 ?
97

For the compound Nc1c2c(nc3ccc(Cl)cc13)CC(c1ccccc1)CC2=O (stereo unspecified) , what growth is on record?
61.3

Value lookup for growth; key = COc1cccc(-c2nn(-c3ccccc3)cc2-c2ccnc(NCCCNS(=O)(=O)c3ccccc3)c2)c1
38.7

Quick one: growth for COc1cc(/C=N/NC(=S)NNC(=S)NC2CCCCC2)cc(OC)c1OC ?
87.8

Give its growth value. Item: Cc1ccc(S(=O)(=O)Nc2ccc(-c3cc(-c4cccc(F)c4)c(C#N)c(=O)[nH]3)cc2)cc1
83.7

Can you share its growth? I mean this compound: S=c1[nH]nc2ccccn12
106

What value of measured growth is listed for CC1(n2nnnc2N2CCCN(c3ncccc3N)CC2)CCC1 ?
95.7

Looking for the measured growth of COc1cccc2c1C(=O)c1c(O)c3c(c(O)c1C2=O)C[C@@](O)(C(=O)CO)C[C@@H]3OC1C[C@H](N)[C@H](O)[C@H](C)O1 (stereo partly specified) , can you help?
6.88

// growth lookup, key: N#C/C(=C\c1ccc(-c2ccc(Br)cc2)o1)c1nc(-c2ccco2)cs1
92.3

Requested field: growth. Item: N#C/C(=C\c1ccc(-c2ccc(F)cc2)o1)c1nc(-c2ccco2)cs1
101

Could you tell me which growth is on file for CC(c1ccccc1)N1C(=O)C(C2SC(=S)N(C(C)c3ccccc3)C2=O)SC1=S (stereo unspecified) ?
85.5

Recorded growth for Clc1ccccc1-c1nc(Nc2nc3ccccc3s2)nc(C(Cl)(Cl)Cl)n1 , please?
82.6
